# System: UACC-257 melanoma
# method notes: NCI tumour cell line growth inhibition, 48 h
The reader will find reported TGI values listed item by item below.

Example cases with answers are listed next.
compound: COC12C=C/C(=C(/C(=O)OCc3ccccn3)C(=O)CCCCCCCCC3(OC)C=C/C(=C(/C(=O)OCc4ccccn4)C(=O)CCCCCCCC1)O3)O2
TGI: 4.27 µM
--
compound: COC(=O)C1=C(O)[C@H](C(=O)OC)C2(O)C(C(=O)OC)[C@H](c3ccc(OC(=O)C(C)c4ccc(CC(C)C)cc4)cc3)C[C@@H]1[C@@H]2C(=O)OC (some centres undefined)
TGI: > 50 µM
--
compound: Nc1nc([Se])c2ncn(C3OC(CO)C(O)C3O)c2n1 (centres undefined)
TGI: > 100 µM
--
compound: O=C(/C=C\c1ccc([N+](=O)[O-])cc1)c1ccccc(=O)c1O
TGI: 7.85 µM
--
compound: Cc1ccc(C2=C(C#N)C(N)OC3=C2COc2ccccc23)cc1 (centres undefined)
TGI: > 100 µM
--
compound: CCCCCCCCCCCC[C@@H](O)[C@H]1CCC([C@H](O)CCCCC(=O)CCCCCCCC2=C[C@H](C)OC2=O)O1 (some centres undefined)
TGI: > 50 µM

What value of measured TGI is listed for CCOC(=O)C(=O)CC1=Nc2ccccc2SC(c2cccc(C)c2)C1 (centres undefined) ?
33.2 µM

And what about the compound `O=C(CCC=C(S(=O)(=O)c1ccccc1)S(=O)(=O)c1ccccc1)c1ccccc1` ?
23.3 µM

Note, next up: `O=C(O)c1ccc(C2=Cc3cc(Cl)ccc3OC2)cc1`
> 100 µM
